target: UniProt P49840; assay: concentration-response blocking of human GSK3A – biochemical, luminescence, cell-free homogeneous, retest, dose response (AID 463203); settings: GSK-3 alpha enzyme, ADP-Glo luminescence, 60 min
Sequence (P49840 whole entry, looked up): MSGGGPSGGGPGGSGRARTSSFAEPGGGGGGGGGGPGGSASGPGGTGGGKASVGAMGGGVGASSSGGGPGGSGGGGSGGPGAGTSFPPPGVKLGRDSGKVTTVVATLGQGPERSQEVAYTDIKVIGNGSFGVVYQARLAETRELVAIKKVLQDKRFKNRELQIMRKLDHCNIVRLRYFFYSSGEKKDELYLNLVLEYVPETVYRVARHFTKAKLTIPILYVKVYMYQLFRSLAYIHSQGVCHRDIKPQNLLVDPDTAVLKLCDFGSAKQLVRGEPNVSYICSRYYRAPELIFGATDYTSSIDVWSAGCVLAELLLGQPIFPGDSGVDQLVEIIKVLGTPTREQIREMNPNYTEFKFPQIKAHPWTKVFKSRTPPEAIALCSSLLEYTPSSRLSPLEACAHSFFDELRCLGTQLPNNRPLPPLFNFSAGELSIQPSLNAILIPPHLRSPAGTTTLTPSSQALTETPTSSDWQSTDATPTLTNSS
Activity calls are given as the source filed them.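 Rule for the calls: active = more than half of replicate measurements showing over 20% loss of kinase signal relative to plate controls; inconclusive = some but at most half of replicates over 20% loss; inactive = no replicate over 20% signal loss.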
Respond with a class label; see YES for active, NO for inactive

Some solved entries appear below for comparison.
[
  {
    "molecule": "COc1cccc(C(=O)O/N=C(\\N)c2ccccn2)c1",
    "category": "YES"
  },
  {
    "molecule": "COc1ccc(OCC(=O)N/N=C/c2ccc(N(C)C)cc2)cc1",
    "category": "NO"
  },
  {
    "molecule": "CCOC(=O)CSc1nc(N)c(C#N)c(-c2cccs2)c1C#N",
    "category": "NO"
  },
  {
    "molecule": "CCC(C)c1ccc(NC(=S)NCc2cccs2)cc1 (stereo unspecified)",
    "category": "NO"
  },
  {
    "molecule": "COc1ccc(-c2cn3cccnc3n2)cc1NC(=O)C1CCCC1",
    "category": "NO"
  }
]

Turning now to a further record.
### Prompt Status in this test for "Cc1cc(C)n(CCC(=O)N=Nc2c(O)[nH]c3ccc(Br)cc23)n1" ?
### Response YES
